# System name: MAP3K11 (human)
# Assay explanation: radiometric filter-binding kinase assay, Kinase HotSpot
# Condition details: compound 0.5 µM; ATP 10 µM
Experimental endpoint: residual activity
Please state the number and follow it with the unit.

(Q) Item under review: O=C1Nc2ccccc2/C1=C\c1c(Cl)[nH]c2ccccc12 . Reported residual activity?
(A) 100%

(Q) Item under review: O=C(NC(NC(=S)Nc1ccc(F)c([N+](=O)[O-])c1)C(Cl)(Cl)Cl)C(c1ccccc1)c1ccccc1 (stereo unspecified) . Reported residual activity?
(A) 102%

(Q) Item under review: O=C1Cc2c([nH]c3ccc([N+](=O)[O-])cc23)-c2ccccc2N1 . Reported residual activity?
(A) 11.8%

(Q) Item under review: CC(C)n1cnc2c(Nc3cccc(Cl)c3)nc(NCCO)nc21 . Reported residual activity?
(A) 51%

(Q) Item under review: Cc1ccc(NC(=O)c2ccc(CN3CCN(C)CC3)cc2)cc1Nc1nc(-c2cccnc2)cs1 . Reported residual activity?
(A) 101%

(Q) Item under review: Clc1ccc(Nc2nnc(Cc3ccncc3)c3ccccc23)cc1 . Reported residual activity?
(A) 106%

(Q) Item under review: Oc1ccc(-c2nc(-c3ccc(F)cc3)c(-c3ccncc3)[nH]2)cc1 . Reported residual activity?
(A) 25.2%

(Q) Item under review: O=C1Nc2cc(Br)ccc2/C1=C1/Nc2ccccc2/C1=N\O . Reported residual activity?
(A) 16%

(Q) Item under review: CC(C)(C)c1nc2c3ccc(F)cc3c3c(=O)[nH]ccc3c2[nH]1 . Reported residual activity?
(A) 57%

(Q) Item under review: Nc1nc(Nc2ccc(S(N)(=O)=O)cc2)nn1C(=O)c1c(F)cccc1F . Reported residual activity?
(A) 47.2%

(Q) Item under review: O=c1cc(-c2cccc3c2Sc2ccccc2S3)oc(N2CCOCC2)c1 . Reported residual activity?
(A) 98.6%

(Q) Item under review: COc1cc2ncnc(Nc3ccc(F)c(Cl)c3)c2cc1OCCCN1CCOCC1 . Reported residual activity?
(A) 102%

(Q) Item under review: CSc1nc(-c2ccc(F)cc2)c(-c2ccnc(NC(C)c3ccccc3)c2)[nH]1 (stereo unspecified) . Reported residual activity?
(A) 101%

(Q) Item under review: Cc1cc2ncc(-c3ccccc3)nc2cc1C . Reported residual activity?
(A) 97.3%

(Q) Item under review: O=C(Nc1ccc(Cl)cc1)c1ccccc1NCc1ccncc1 . Reported residual activity?
(A) 89%

(Q) Item under review: COc1cc2nccc(Oc3ccc(NC(=S)NC(=O)c4ccccc4C)cc3)c2cc1OC . Reported residual activity?
(A) 95.5%

(Q) Item under review: CCN1/C(=C/C(C)=O)Sc2ccc(OC)cc21 . Reported residual activity?
(A) 102%

(Q) Item under review: CC(C)[C@H](CO)Nc1nc(Nc2cccc(Cl)c2)c2ncn(C(C)C)c2n1 . Reported residual activity?
(A) 40.2%

(Q) Item under review: COc1ccc(-c2cnc3c(-c4ccsc4)cnn3c2)cc1 . Reported residual activity?
(A) 51.9%

(Q) Item under review: Nc1nc(Nc2ccc(S(N)(=O)=O)cc2)nn1C(=S)Nc1c(F)cccc1F . Reported residual activity?
(A) 1.33%

(Q) Item under review: C#Cc1cccc(Nc2ncnc3cc(OCCOC)c(OCCOC)cc23)c1 . Reported residual activity?
(A) 104%

----------
Task for the reader: assign each of the following compounds its reported residual activity.
# System name: NUAK2 (human) (UniProt Q9H093)
# Sequence (Q9H093 whole entry, looked up): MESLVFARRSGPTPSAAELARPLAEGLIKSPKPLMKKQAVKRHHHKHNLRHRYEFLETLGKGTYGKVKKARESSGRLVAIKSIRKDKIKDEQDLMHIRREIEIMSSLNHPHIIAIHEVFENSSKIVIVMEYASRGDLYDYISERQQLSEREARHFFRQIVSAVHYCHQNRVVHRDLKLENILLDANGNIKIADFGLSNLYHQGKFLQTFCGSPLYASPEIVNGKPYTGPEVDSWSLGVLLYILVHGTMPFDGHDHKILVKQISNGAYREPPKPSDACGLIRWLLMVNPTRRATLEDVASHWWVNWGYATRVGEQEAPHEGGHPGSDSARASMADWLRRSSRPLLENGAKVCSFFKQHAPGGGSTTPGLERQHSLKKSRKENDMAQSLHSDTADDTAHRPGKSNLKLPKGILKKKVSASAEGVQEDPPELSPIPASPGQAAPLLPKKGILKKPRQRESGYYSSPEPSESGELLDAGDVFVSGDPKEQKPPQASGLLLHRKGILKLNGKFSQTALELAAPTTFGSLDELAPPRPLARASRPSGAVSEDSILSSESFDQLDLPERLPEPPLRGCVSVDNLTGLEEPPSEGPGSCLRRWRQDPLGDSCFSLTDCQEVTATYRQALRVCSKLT
# Assay explanation: radiometric filter-binding kinase assay, Kinase HotSpot
# Condition details: compound 0.5 µM; ATP 10 µM
Your answer should be a plain number; it is taken to be in %.

(Q) Item under review: O=C(NC(NC(=S)Nc1ccc(F)c([N+](=O)[O-])c1)C(Cl)(Cl)Cl)C(c1ccccc1)c1ccccc1 (centres undefined) . Reported residual activity?
(A) 108

(Q) Item under review: Oc1ccc(-c2nc(-c3ccc(F)cc3)c(-c3ccncc3)[nH]2)cc1 . Reported residual activity?
(A) 128

(Q) Item under review: Nc1n[nH]c2nnc(-c3c(-c4ccccc4)nn4ccccc34)cc12 . Reported residual activity?
(A) 87.3

(Q) Item under review: O=C(Nc1ccc(Cl)cc1)c1ccccc1NCc1ccncc1 . Reported residual activity?
(A) 137

----------
# System name: FLT1 (human)
# Assay explanation: radiometric filter-binding kinase assay, Kinase HotSpot
# Condition details: compound 0.5 µM; ATP 10 µM
Experimental endpoint: residual activity (%)
Your answer should be a plain number; it is taken to be in %.

(Q) Item under review: Cc1ccc(NC(=O)c2ccc(CN3CCN(C)CC3)cc2)cc1Nc1nc(-c2cccnc2)cs1 . Reported residual activity?
(A) 96.4

(Q) Item under review: CC(C)[C@H](CO)Nc1nc(Nc2cccc(Cl)c2)c2ncn(C(C)C)c2n1 . Reported residual activity?
(A) 102

(Q) Item under review: O=C1Nc2cc(Br)ccc2/C1=C1/Nc2ccccc2/C1=N\O . Reported residual activity?
(A) 75.1

(Q) Item under review: CS(=O)c1ccc(-c2nc(-c3ccc(F)cc3)c(-c3ccncc3)[nH]2)cc1 (configuration not stated) . Reported residual activity?
(A) 95.2

(Q) Item under review: CC(C)(C)c1nc2c3ccc(F)cc3c3c(=O)[nH]ccc3c2[nH]1 . Reported residual activity?
(A) 92.3

(Q) Item under review: CC(C)n1cnc2c(Nc3cccc(Cl)c3)nc(NCCO)nc21 . Reported residual activity?
(A) 93.4

(Q) Item under review: C#Cc1cccc(Nc2ncnc3cc(OCCOC)c(OCCOC)cc23)c1 . Reported residual activity?
(A) 87.5

(Q) Item under review: Cc1cc2ncc(-c3ccccc3)nc2cc1C . Reported residual activity?
(A) 85.2

(Q) Item under review: CCCNC(=O)Nc1ccc(Oc2ncnc3cc(OC)c(OC)cc23)cc1Cl . Reported residual activity?
(A) 65.2

(Q) Item under review: Nc1nc(Nc2ccc(S(N)(=O)=O)cc2)nn1C(=S)Nc1c(F)cccc1F . Reported residual activity?
(A) 11.4

(Q) Item under review: COc1ccc(-c2cnc3c(-c4ccsc4)cnn3c2)cc1 . Reported residual activity?
(A) 75.7

(Q) Item under review: Nc1nc(Nc2ccc(S(N)(=O)=O)cc2)nn1C(=O)c1c(F)cccc1F . Reported residual activity?
(A) 90.7

(Q) Item under review: CSc1nc(-c2ccc(F)cc2)c(-c2ccnc(NC(C)c3ccccc3)c2)[nH]1 (configuration not stated) . Reported residual activity?
(A) 71.5

(Q) Item under review: CCN1/C(=C/C(C)=O)Sc2ccc(OC)cc21 . Reported residual activity?
(A) 88.4

(Q) Item under review: O=C(Nc1ccc(Cl)cc1)c1ccccc1NCc1ccncc1 . Reported residual activity?
(A) 24.8

(Q) Item under review: COc1cc2ncnc(Nc3ccc(F)c(Cl)c3)c2cc1OCCCN1CCOCC1 . Reported residual activity?
(A) 98.3

(Q) Item under review: NC(=O)c1ccc(N(C(N)=O)c2c(F)cccc2F)nc1-c1ccc(F)cc1F . Reported residual activity?
(A) 102

(Q) Item under review: O=C(NC(NC(=S)Nc1ccc(F)c([N+](=O)[O-])c1)C(Cl)(Cl)Cl)C(c1ccccc1)c1ccccc1 (configuration not stated) . Reported residual activity?
(A) 97.2

(Q) Item under review: Nc1n[nH]c2nnc(-c3c(-c4ccccc4)nn4ccccc34)cc12 . Reported residual activity?
(A) 96.7

(Q) Item under review: Oc1ccc(-c2nc(-c3ccc(F)cc3)c(-c3ccncc3)[nH]2)cc1 . Reported residual activity?
(A) 90.6

(Q) Item under review: COc1cc2nccc(Oc3ccc(NC(=S)NC(=O)c4ccccc4C)cc3)c2cc1OC . Reported residual activity?
(A) 89.8

(Q) Item under review: O=c1cc(N2CCNCC2)oc2c(-c3ccccc3)cccc12 . Reported residual activity?
(A) 86.6

----------
# System name: CAMK4 (human)
# Assay explanation: radiometric filter-binding kinase assay, Kinase HotSpot
# Condition details: compound 0.5 µM; ATP 10 µM
Experimental endpoint: residual activity (%)
Your answer should be a plain number; it is taken to be in %.

(Q) Form field - read-out: residual activity; system: CAMK4 (human); submitted item: CCCNC(=O)Nc1ccc(Oc2ncnc3cc(OC)c(OC)cc23)cc1Cl
(A) 99.1

(Q) Form field - read-out: residual activity; system: CAMK4 (human); submitted item: Nc1nc(Nc2ccc(S(N)(=O)=O)cc2)nn1C(=O)c1c(F)cccc1F
(A) 96.8

(Q) Form field - read-out: residual activity; system: CAMK4 (human); submitted item: Clc1ccc(Nc2nnc(Cc3ccncc3)c3ccccc23)cc1
(A) 93.4

(Q) Form field - read-out: residual activity; system: CAMK4 (human); submitted item: COc1cc2nccc(Oc3ccc(NC(=S)NC(=O)c4ccccc4C)cc3)c2cc1OC
(A) 103

(Q) Form field - read-out: residual activity; system: CAMK4 (human); submitted item: CC(C)(C)c1nc2c3ccc(F)cc3c3c(=O)[nH]ccc3c2[nH]1
(A) 81.8

(Q) Form field - read-out: residual activity; system: CAMK4 (human); submitted item: Nc1nc(Nc2ccc(S(N)(=O)=O)cc2)nn1C(=S)Nc1c(F)cccc1F
(A) 98.8

(Q) Form field - read-out: residual activity; system: CAMK4 (human); submitted item: CC(C)n1cnc2c(Nc3cccc(Cl)c3)nc(NCCO)nc21
(A) 101

(Q) Form field - read-out: residual activity; system: CAMK4 (human); submitted item: O=C1Nc2ccccc2/C1=C\c1c(Cl)[nH]c2ccccc12
(A) 102

(Q) Form field - read-out: residual activity; system: CAMK4 (human); submitted item: CC(C)[C@H](CO)Nc1nc(Nc2cccc(Cl)c2)c2ncn(C(C)C)c2n1
(A) 95.3

(Q) Form field - read-out: residual activity; system: CAMK4 (human); submitted item: O=C1Nc2cc(Br)ccc2/C1=C1/Nc2ccccc2/C1=N\O
(A) 96.3

(Q) Form field - read-out: residual activity; system: CAMK4 (human); submitted item: NC(=O)c1ccc(N(C(N)=O)c2c(F)cccc2F)nc1-c1ccc(F)cc1F
(A) 91.9

(Q) Form field - read-out: residual activity; system: CAMK4 (human); submitted item: CCN1/C(=C/C(C)=O)Sc2ccc(OC)cc21
(A) 99.9

(Q) Form field - read-out: residual activity; system: CAMK4 (human); submitted item: Cc1ccc(NC(=O)c2ccc(CN3CCN(C)CC3)cc2)cc1Nc1nc(-c2cccnc2)cs1
(A) 98.6

(Q) Form field - read-out: residual activity; system: CAMK4 (human); submitted item: CSc1nc(-c2ccc(F)cc2)c(-c2ccnc(NC(C)c3ccccc3)c2)[nH]1 (stereo unspecified)
(A) 106

(Q) Form field - read-out: residual activity; system: CAMK4 (human); submitted item: Nc1n[nH]c2nnc(-c3c(-c4ccccc4)nn4ccccc34)cc12
(A) 94.2

(Q) Form field - read-out: residual activity; system: CAMK4 (human); submitted item: Oc1ccc(-c2nc(-c3ccc(F)cc3)c(-c3ccncc3)[nH]2)cc1
(A) 102

(Q) Form field - read-out: residual activity; system: CAMK4 (human); submitted item: O=C1Cc2c([nH]c3ccc([N+](=O)[O-])cc23)-c2ccccc2N1
(A) 89.2

(Q) Form field - read-out: residual activity; system: CAMK4 (human); submitted item: C#Cc1cccc(Nc2ncnc3cc(OCCOC)c(OCCOC)cc23)c1
(A) 94.8

(Q) Form field - read-out: residual activity; system: CAMK4 (human); submitted item: Cc1cc2ncc(-c3ccccc3)nc2cc1C
(A) 98.3

(Q) Form field - read-out: residual activity; system: CAMK4 (human); submitted item: O=c1cc(N2CCNCC2)oc2c(-c3ccccc3)cccc12
(A) 104

(Q) Form field - read-out: residual activity; system: CAMK4 (human); submitted item: O=C(NC(NC(=S)Nc1ccc(F)c([N+](=O)[O-])c1)C(Cl)(Cl)Cl)C(c1ccccc1)c1ccccc1 (stereo unspecified)
(A) 98.5

(Q) Form field - read-out: residual activity; system: CAMK4 (human); submitted item: O=C(Nc1ccc(Cl)cc1)c1ccccc1NCc1ccncc1
(A) 101

(Q) Form field - read-out: residual activity; system: CAMK4 (human); submitted item: O=c1cc(-c2cccc3c2Sc2ccccc2S3)oc(N2CCOCC2)c1
(A) 94

(Q) Form field - read-out: residual activity; system: CAMK4 (human); submitted item: COc1cc2ncnc(Nc3ccc(F)c(Cl)c3)c2cc1OCCCN1CCOCC1
(A) 93.3

(Q) Form field - read-out: residual activity; system: CAMK4 (human); submitted item: CS(=O)c1ccc(-c2nc(-c3ccc(F)cc3)c(-c3ccncc3)[nH]2)cc1 (stereo unspecified)
(A) 101

(Q) Form field - read-out: residual activity; system: CAMK4 (human); submitted item: COc1ccc(-c2cnc3c(-c4ccsc4)cnn3c2)cc1
(A) 98.4

Origin of the recorded values: the kinase profiling compilation of Christmann-Franck et al. (2016)
